assay: Selectivity index, ratio of IC50 for African green monkey Vero cells to IC50 for Plasmodium falciparum W2; assay type: toxicity, cell-based; settings: read-out: Ratio IC50
quantity.kind: selectivity ratio

# annotated cases, reported selectivity ratio shown
>>> recorded_result("CCCCCCCCn1cc(CO)nn1")
"> 3.39"
>>> recorded_result("C[C@@H]1CC[C@H]2[C@@H](C)C(=O)O[C@@H]3O[C@@]4(C)CC[C@@H]1[C@]32OO4")
"> 179"
>>> recorded_result("CCCCCCCCCCn1cc(C(=O)OC)nn1")
"> 2.64"
>>> recorded_result("CC(C)=CCC/C(C)=C/CC/C(C)=C\\Cn1cc(CCO)nn1")
"> 7.31"
>>> recorded_result("CCCCCc1cn(CCCc2ccccc2)nn1")
"> 1.7"
>>> recorded_result("CCCc1cn(CCCc2ccccc2)nn1")
"> 1.83"
>>> recorded_result("COC(=O)c1cn(CC=C(C)C)nn1")
1.06

Any idea what selectivity ratio was measured for `CCCCCCCCCCc1cn(Cc2ccccc2)nn1` ? > 1.48
